# Tested on: TYKNU
# measurement_protocol: fractional viability relative to vehicle; TYKNU is a high-grade serous ovarian cancer line; higher = less growth inhibition
# assay_context: 2uM; 72 h; genotype: OPA1 knockout (sgOPA1 #2)
Whole data set: some 2,000 compounds, median “fractional viability relative to vehicle” near 0.92, cut for the lowest 2% near 0.11. What follows is part of a selection rich in the lowest values, with near analogues and random picks from the rest.
Please use satisfied for fractional viability under 0.9 and not satisfied for everything else, ties included.

> print(dat)
                                    compound    label.value
 1  C/C=C1\NC(=O)[C@H]2CSSCC/C=C/[C@H](CC(=O)N[C@H](C(C)C)C(=O)N2)OC(=O)[C@H](C(C)C)NC1=O [Romidepsin (FK228, Depsipeptide)]      satisfied
 2  Nc1nc(=S)c2ncn([C@H]3C[C@H](O)[C@@H](CO)O3)c2[nH]1  not satisfied
 3  COc1cc2c(NC3CCN(CC4CCCCC4)CC3)nc(N3CCCN(C(C)C)CC3)nc2cc1OCCCN1CCCCC1      satisfied
 4  COc1cc2nc(N3CCCC3)nc(NCCCCCN3CCCC3)c2cc1OC      satisfied
 5  COc1ccc(C2=N[C@@H](c3ccc(Cl)cc3)[C@@H](c3ccc(Cl)cc3)N2C(=O)N2CCNC(=O)C2)c(OC(C)C)c1 [Nutlin-3]      satisfied
 6  CNS(=O)(=O)Nc1nccc(Cc2c(C)c3ccc(Oc4ncccn4)cc3oc2=O)c1F      satisfied
 7  COc1nccc(-c2c(-c3ccc(F)cc3)ncn2C2CCC(O)CC2)n1 (configuration not stated)  not satisfied
 8                 O=C1NCCCc2c1oc1ccc(O)cc21  not satisfied
 9  Cc1c[nH]c(/C=C2\C(=O)Nc3ccccc32)c1CCC(=O)O      satisfied
10  N#C/C(=C1/SC[C@@H](c2ccc(Cl)cc2Cl)S1)n1ccnc1 [Luliconazole]  not satisfied
